Here the recorded MIC is given for each entry.
System: Staphylococcus epidermidis
ASSAY METHOD TEXT: Antibacterial activity against erythromycin-resistant Staphylococcus epidermidis 19-11 assessed as inhibition of visible bacterial growth incubated for 18 hrs by broth microdilution method
Type: functional
EXPERIMENTAL ENDPOINT: MIC

1) CC[C@H]1OC(=O)[C@@](C)(F)C(=O)[C@H](C)[C@@H](O[C@@H]2O[C@H](C)C[C@H](N(C)C)[C@H]2O)[C@](C)(OC)C[C@@H](C)C(=O)[C@H](C)[C@H]2N(CCCOC(=O)Nc3ccc(-c4ncccn4)cc3)C(=O)O[C@]12C < 0.03 µg/mL
2) CC[C@H]1OC(=O)[C@@](C)(F)C(=O)[C@H](C)[C@@H](O[C@@H]2O[C@H](C)C[C@H](N(C)C)[C@H]2O)[C@](C)(OC)C[C@@H](C)C(=O)[C@H](C)[C@H]2N(CCCOC(=O)Nc3cccs3)C(=O)O[C@]12C < 0.03 µg/mL
3) CC[C@H]1OC(=O)[C@H](C)[C@@H](O[C@H]2C[C@@](C)(OC)[C@@H](O)[C@H](C)O2)[C@H](C)[C@@H](O[C@@H]2O[C@H](C)C[C@H](N(C)C)[C@H]2O)[C@](C)(O)C[C@@H](C)C(=O)[C@H](C)[C@@H](O)[C@]1(C)O 64 µg/mL
4) CC[C@H]1OC(=O)[C@@](C)(F)C(=O)[C@H](C)[C@@H](O[C@@H]2O[C@H](C)C[C@H](N(C)C)[C@H]2O)[C@](C)(OC)C[C@@H](C)C(=O)[C@H](C)[C@H]2N(CCCOC(=O)Nc3ccccc3Cl)C(=O)O[C@]12C < 0.06 µg/mL
